FYI, the data here is from ChEMBL document CHEMBL6120938.

- experimental target: Replicase polyprotein 1ab (Severe acute respiratory syndrome coronavirus 2, UniProt P0DTD1)
- test summary: Inhibition of SARS-CoV-2 3CL protease by FRET assay
property label: IC50 (µM)
One number for each entry, in µM.

Cc1cccc2nc(CSC(=S)NCc3cccnc3)cn12: 0.02

GET /value?item= CC(C)C[C@H](NC(=O)OCc1ccccc1)C(=O)N[C@@H](CC1CCNC1=O)C(=O)C(=O)NC(C)C (some centres not stated) &field=IC50 returns 5

###

Kindly state Ki for each of the entries shown.
- test summary: Binding affinity to SARS-CoV-2 Main protease assessed as inhibition constant
- Set-up: species or system Severe acute respiratory syndrome coronavirus 2
One number for each entry, in nM.

Field: example entries. Status: answers known.
COc1cc(-c2cccc3[nH]ncc23)cc(C=O)c1OCC(=O)N(C)C: 20
CN(C)C(=O)COc1ccc(-c2cccc3[nH]ncc23)cc1C=O: 37

The measured Ki associated with COc1cc(-c2cccc3[nH]ncc23)cc(C=O)c1OCC(=O)N1CCC(c2cccc(C(=O)N(C)C)c2)C1 (stereo not drawn) reads 45
